Data provenance is BindingDB's records for doi:10.1016/j.bmcl.2004.08.063.

measured target: Tyrosine-protein phosphatase non-receptor type 1 [1-298] (Homo sapiens)
Sequence (P18031 whole entry): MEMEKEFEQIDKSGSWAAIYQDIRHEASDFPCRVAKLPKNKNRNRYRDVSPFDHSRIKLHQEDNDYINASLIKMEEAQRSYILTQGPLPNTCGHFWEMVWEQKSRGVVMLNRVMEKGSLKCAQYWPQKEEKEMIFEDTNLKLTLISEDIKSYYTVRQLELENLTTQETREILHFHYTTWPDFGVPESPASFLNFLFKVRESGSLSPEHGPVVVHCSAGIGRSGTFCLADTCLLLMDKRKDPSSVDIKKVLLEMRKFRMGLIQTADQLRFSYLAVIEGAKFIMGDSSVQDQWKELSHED
outcome measure: pKi
Give only the number. pKi is defined as minus log10 of concentration in molar units.

Item: COC(=O)c1c(O)cccc1OCC1CC1c1cccc(-c2cc(C(=O)O)no2)c1 (stereo unspecified) | pKi: 4.64
